Recorded values, source PubChem BioAssay AID1159580.

// values below are reported normalized growth
Test: chemical genetic growth profiling, strain panel (AID 1159580);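 also: tested at 20 µM; growth read once vehicle control cultures reached saturation at 30 °C; 1 = growth at the plate median or of vehicle wells; lower values mean less growth of the strain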
Details: S. cerevisiae deletion strains, growth OD, locus YOR001W, strain rrp6, hits give low values
In all, about 5,500 compounds went through this assay and about 2,000 (36%) were called active. Roughly 18% stayed inconclusive and do not appear here. This is one part of the list.
Number only, no unit.

Prompt line: Please give measured normalized growth of the following entry: `COC1=CC(=O)C[C@@H](C)[C@]12Oc1c(Cl)c(OC)cc(OC)c1C2=O`
Response line: 0.967

Prompt line: Recall and state the measured normalized growth for `CC(=O)N[C@@H](CC(C)C)C(=O)O` .
Response line: 0.971

Prompt line: Identify normalized growth associated with the compound `COc1ccc2c(C)cc(=O)oc2c1`
Response line: 0.97

Prompt line: Please report normalized growth for the following compound: `CCCCCCCCCCCCCCCC[N+](C)(C)C`
Response line: 0.0595

Prompt line: Answer with the recorded normalized growth of NC(=O)C(c1ccccc1)(c1ccccc1)C1CCN(CCc2ccc3c(c2)CCO3)C1 (stereo unspecified) only.
Response line: 1.03

Prompt line: In one line, give reported normalized growth of the entry `COc1cc2c(cc1OC)[C@@H]1C(=O)c3ccc(OC)c(CC=C(C)C)c3O[C@@H]1CO2` .
Response line: 1.04

---

Experiment: chemical genetic growth profiling, strain panel (AID 1159580);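 also: tested at 20 µM; growth read once vehicle control cultures reached saturation at 30 °C; 1 = growth at the plate median or of vehicle wells; lower values mean less growth of the strain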
Details: S. cerevisiae deletion strains, growth OD, locus YPL241C, strain CIN2, hits give low values
In all, about 5,500 compounds went through this assay and about 2,000 (36%) were called active. Another 18% or so got no clear call; they are omitted. This is one part of the list.
measure: normalized growth
// print number alone

Examples from the recorded data:
COCc1nc2c([nH]1)c(=O)n(C)c(=O)n2CC(C)C    1.01
CC(C(=O)O)c1cccc(Oc2ccccc2)c1 (centres undefined)    0.976
COc1ccc2cc([C@H](C)CO)ccc2c1    0.985
CC(C)(C)NC[C@H](O)COc1nsnc1N1CCOCC1    1
C[N+](C)(C)CCOC(N)=O    1.01
CN1CCC(=C2c3ccccc3CC(=O)c3sccc32)CC1    1

Prompt line: Using the record for COc1cc2c(cc1OC)C1C(=O)c3c(OC)cc4c(c3OC1CO2)CCC(C)(C)O4 (centres undefined) , state its measured normalized growth.
Response line: 1.01

Prompt line: Return normalized growth for the following compound: CCC(C)C(OC(C)=O)C(=O)OC1C(O)C2C3(C)C=CC(=O)C(C)(C)C3CC(OC(=O)C(O)C(C)C)C2(C)C23OC2CC(c2ccoc2)C13C (centres undefined)
Response line: 1

Prompt line: Identify the reported normalized growth for the following entry. `Clc1ccc(N2CCN(Cc3c[nH]c4ncccc34)CC2)cc1`
Response line: 0.992

Prompt line: Name the recorded normalized growth of the item `N[C@@H](C(=O)O)c1ccccc1` in your answer.
Response line: 1.02

Prompt line: Give normalized growth for CC(C(=O)O)c1cccc(C(=O)c2ccccc2)c1 (centres undefined)
Response line: 0.993

Prompt line: Annotate the compound COc1ccc(OC)c(C(O)C(C)N)c1 (centres undefined) with its measured normalized growth.
Response line: 1.01

Prompt line: Please give measured normalized growth of the following entry: `CP(=O)(O)C1=CCNCC1`
Response line: 1

Prompt line: Supply measured normalized growth of CCN(CC)CC#CCOC(=O)C(O)(c1ccccc1)C1CCCCC1 (centres undefined) in your reply.
Response line: 1

Prompt line: Give the reported normalized growth for this compound. `CC(=O)OCC[N+](C)(C)C`
Response line: 1
